target: human PAH with the R408W mutation (Homo sapiens, UniProt P00439, R408W); construct: expressed in transfected cells; experiment: Cell Based Phenylalanine Flux Assay; settings: A375 cells expressing human R408W PAH; 24 hrs compound incubation; 13C-Tyrosine by LC-MS; average where tested multiple times; read-out: AC50
Recorded measurements of AC50, one per entry

[[record]]
molecule = "Cn1cnc(-c2nnc(C(=O)N3CCc4[nH]cnc4[C@H]3c3cc4ccccc4cn3)o2)c1"
result = "< 500 nM"

[[record]]
molecule = "C[C@@H]1CN(C(=O)c2nnc(C(C)(C)C)o2)[C@@H](c2cc3ccccc3cn2)c2nc[nH]c21"
result = "1000 to 5000 nM"

[[record]]
molecule = "O=C(c1cncs1)N1CCc2[nH]cnc2[C@H]1c1ccc2ccccc2c1"
result = "1000 to 5000 nM"

[[record]]
molecule = "O=C(c1cnc(C2(F)CCC2)s1)N1CCc2[nH]cnc2[C@@H]1c1cn2ccccc2n1"
result = "> 5000 nM"

[[record]]
molecule = "Cn1ncnc1C(=O)N1CCc2[nH]cnc2C1c1ccc2ccccc2n1 (stereo in doubt)"
result = "500 to 1000 nM"


# query: AC50 of entry CC(C)(O)c1ncc(C(=O)N2CCc3[nH]cnc3[C@@H]2c2cc3ccccc3cn2)s1
> 5000 nM

Recorded AC50 of N#Cc1ncoc1C(=O)N1CCc2[nH]cnc2[C@H]1c1cc2ccccc2cn1 , please.
< 500 nM

* * *

Molecular target: human PAH with the R408W mutation (Homo sapiens, UniProt P00439, R408W)
Construct: expressed in transfected cells
Sequence (P00439 1-452 R408W): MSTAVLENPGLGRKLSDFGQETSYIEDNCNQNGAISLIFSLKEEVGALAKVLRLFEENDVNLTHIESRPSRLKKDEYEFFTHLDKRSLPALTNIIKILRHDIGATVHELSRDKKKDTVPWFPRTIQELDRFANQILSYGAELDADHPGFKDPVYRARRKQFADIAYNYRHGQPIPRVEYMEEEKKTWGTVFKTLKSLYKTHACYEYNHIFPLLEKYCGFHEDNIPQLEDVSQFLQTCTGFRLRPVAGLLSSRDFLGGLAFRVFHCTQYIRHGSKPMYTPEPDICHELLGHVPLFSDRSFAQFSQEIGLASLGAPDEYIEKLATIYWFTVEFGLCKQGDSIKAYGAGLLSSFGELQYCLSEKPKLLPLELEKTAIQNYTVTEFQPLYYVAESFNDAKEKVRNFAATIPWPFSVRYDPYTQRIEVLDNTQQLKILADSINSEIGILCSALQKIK
Experiment: Cell Based Phenylalanine Flux Assay
Settings: A375 cells expressing human R408W PAH; 24 hrs compound incubation; 13C-Tyrosine by LC-MS; average where tested multiple times; read-out: AC50
Measured AC50 of individual entries

Would you please look over these solved cases?
[[record]]
compound = "Cn1nccc1C(=O)N1CCc2[nH]cnc2C1c1ccc2ccccc2n1 (stereo in doubt) [Example 93]"
target_desc = "human PAH with the R408W mutation (Homo sapiens, UniProt P00439, R408W)"
result = "< 500 nM"

[[record]]
compound = "O=C(c1oc(-c2ccccn2)nc1C(F)F)N1CCc2[nH]cnc2[C@@H]1c1ccc2ccccc2n1"
target_desc = "human PAH with the R408W mutation (Homo sapiens, UniProt P00439, R408W)"
result = "1000 to 5000 nM"

[[record]]
compound = "C[C@H]1CN(C(=O)c2nnc(C3CC3)o2)[C@H](c2cc3ccccc3cn2)c2nc[nH]c21"
target_desc = "human PAH with the R408W mutation (Homo sapiens, UniProt P00439, R408W)"
result = "500 to 1000 nM"

[[record]]
compound = "O=C(c1cnn2cc(CN3CCOCC3)ccc12)N1CCc2[nH]cnc2[C@H]1c1cc2ccccc2cn1"
target_desc = "human PAH with the R408W mutation (Homo sapiens, UniProt P00439, R408W)"
result = "< 500 nM"

[[record]]
compound = "Nc1cc(C(=O)N2CCc3[nH]cnc3C2c2ccc3ccccc3n2)n(C(F)F)n1 (stereo in doubt)"
target_desc = "human PAH with the R408W mutation (Homo sapiens, UniProt P00439, R408W)"
result = "500 to 1000 nM"

[[record]]
compound = "O=C(CC1CC(F)C1)N1CCc2[nH]cnc2C1c1ccc2ccccc2n1 (stereo in doubt) [Example 53]"
target_desc = "human PAH with the R408W mutation (Homo sapiens, UniProt P00439, R408W)"
result = "< 500 nM"


I would be grateful if you could share the reported AC50 for O=C(c1nncs1)N1CCc2[nH]cnc2[C@H]1c1cc2ccccc2cn1 .
< 500 nM

Data request, read-out AC50, for CC(O)c1nc(Cl)c(C(=O)N2CCc3[nH]cnc3[C@@H]2c2ccc3ccccc3n2)o1 (single isomer, unassigned) [Example 136]
1000 to 5000 nM

Which AC50 value is on record for Cn1ncnc1C(=O)N1CCc2[nH]cnc2[C@@H]1c1ccc2ccccc2n1 ?
> 5000 nM

Look up AC50: O=C(c1ocnc1C1CC1)N1CCc2[nH]cnc2[C@H]1c1cn2ccccc2n1
500 to 1000 nM

I have this compound here, Cn1cc(-c2nnc(C(=O)N3CCc4[nH]cnc4[C@H]3c3ncc4ccccc4n3)o2)cn1 , and I need its recorded AC50.
500 to 1000 nM

May I ask what AC50 has been recorded for O=C(c1nnc(-c2c(F)cccc2F)o1)N1CCc2[nH]cnc2[C@H]1c1cc2ccccc2cn1 ?
< 500 nM

Recorded AC50 of CN(C)Cc1ccc2c(C(=O)N3CCc4[nH]cnc4[C@H]3c3ncc4ccccc4n3)cnn2c1 , please.
500 to 1000 nM

Which AC50 value belongs to O=C(c1cnc(-c2ccccn2)o1)N1CCc2[nH]cnc2C1c1ccc2ccccc2n1 (stereo in doubt) [Example 61] ?
500 to 1000 nM

I am curious: what AC50 value has been reported for Cc1nc(-c2ccccn2)oc1C(=O)N1CCc2[nH]cnc2[C@H]1c1cc2ccccc2nn1 ?
500 to 1000 nM

Values compiled from patent US20250262201A1.
